TARGET UNDER TEST: T1, Tilelizumab
T1 construct: Biotin-labelled in flow cytometry; also called Tevimbra; Tislelizumab
ASSAY INFO: SPR, Biacore T200; PD1-RFc mobile phase, antibody stationary phase
MEASUREMENT NAME: koff (s⁻¹)

{"columns": ["BINDER", "MEASUREMENT NAME", "VALUE OBSERVED"],
 "data": [
  ["Seq No.7-RFc (PD-1 variant SEQ ID NO: 7 fused to rabbit IgG Fc) (Fc fusion, Signal peptide 1-20 left out; also called variant 6; not shown: rabbit IgG Fc (RFc) of vector pcDNA3.4-RFc) PGWFLDSPDRPWNPPTFSPALLVVTEGDNATFTCSFSNTSESFVLNWYRMSPSNQTDKLAAFPEDRINRSQDCRFRVTQLPNGRDFHMSVVRARRNDSGTYLCGAISLSTPVWIKESLRAELRVTERRAEVPTAH", "koff", 0.000109]
]}
